assay_info: qHTS for identification of novel therapeutic agents for treatment of microphthalmiaassociated transcription factor (MiT) renal cell carcinoma (RCC) (AID 1963991);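 also: curves scaled with 100% = DMSO viability and 0% = empty wells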
test_settings: TFE3-RCC viability, CellTiter-Glo, 48 h; measured here: UOK124 Z-AUC; stronger effect = lower value
Records with an inconclusive call do not appear.
# z-score per record follows
The reply should be a number, written without any unit.

Example entries begin here.
- compound: "O=c1ccn([C@@H]2O[C@H](CO)[C@H](O)[C@H]2O)c(=O)[nH]1"
  z-score: 0.584
- compound: "CC(=NNC(=S)N1CCC1)c1ccccn1"
  z-score: -1.96
- compound: "CNC(=O)c1ccc2cc(C3(O)CCn4cncc43)ccc2c1 (stereo not given)"
  z-score: 0.546

Consider "COc1ccc(-c2coc3cc(O)ccc3c2=O)cc1" . Its measured z-score is 0.783

Consider "O=C(O)C=Cc1ccc(O)c(O)c1" . Its measured z-score is 0.19

Consider "CO[C@H]1C[C@@H]2CC[C@@H](C)[C@@](O)(O2)C(=O)C(=O)N2CCCC[C@@H]2C(=O)O[C@H]([C@H](C)C[C@@H]2CC[C@H](OP(C)(C)=O)[C@H](OC)C2)CC(=O)[C@H](C)C=C(C)[C@@H](O)[C@@H](OC)C(=O)[C@H](C)C[C@H](C)C=CC=CC=C1C" . Its measured z-score is 0.621

Consider "COc1cc(N2CCC(N3CCN(C)CC3)CC2)ccc1Nc1ncc(Cl)c(Nc2ccccc2S(=O)(=O)C(C)C)n1" . Its measured z-score is -1.62

Consider "COc1ccc(-n2c(C)c([N+](=O)[O-])c3ccc(O)cc32)cc1" . Its measured z-score is 0.575

Consider "COc1cc2nc(-c3ccc(N4CCN(C)CC4)cc3)nc(NCCN3CCOCC3)c2cc1OC" . Its measured z-score is -1.85

Consider C=C1C(=O)OC2C=C(C)CCC=C(C)CCC12 (stereo not given) . Its measured z-score is 0.643

Consider "C[C@H]1[C@H](NC(=O)C(=NOC(C)(C)C(=O)O)c2csc(N)n2)C(=O)N1S(=O)(=O)O" . Its measured z-score is 0.648

Consider "COc1cc(O)c2c(c1)C(=O)c1cc(C)cc(O)c1C2=O" . Its measured z-score is 1.13

Consider "CC(=Cc1ccccc1)C=C1SC(=S)N(CC(=O)O)C1=O" . Its measured z-score is 1.04

Consider "Nc1ncnc2c1ncn2[C@@H]1O[C@H](CO)C[C@@H]1O" . Its measured z-score is 0.223

Consider "COc1ccc(Cc2ccc(NC(N)=O)cc2)cc1-c1cccc(Cl)c1" . Its measured z-score is 0.853

Consider CC(C)C(C)C=CC(C)C1CCC2C3=CC=C4CC(O)CCC4(C)C3CCC21C (stereo not given) . Its measured z-score is 0.655

Consider "CO[C@H]1C[C@@H]2CC[C@@H](C)[C@@](O)(O2)C(=O)C(=O)N2CCCC[C@@H]2C(=O)O[C@H]([C@@H](C)C[C@@H]2CC[C@H](O)[C@H](OC)C2)CC(=O)[C@H](C)C=C(C)[C@@H](O)[C@@H](OC)C(=O)[C@H](C)C[C@H](C)C=CC=CC=C1C" . Its measured z-score is 1.08
